Value source: the supplement of paper PMC10567573

B1: SOAT1 (parent)
chain: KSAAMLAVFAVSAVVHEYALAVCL

- Variants of: B1
- Experiment Summary: protein stability index of a GFP-peptide fusion (GPS, HEK-293T) (PSI 1-6); higher = more stable;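 note: lentivirally expressed fusions sorted by FACS into six bins by GFP to DsRed ratio, PSI derived from sequencing read proportions per bin multiplied by bin number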
- Measurement Context: c terminus: a fixed tail appended
Metric Name: protein stability index
// response body must contain only the number

These recorded examples may help you get a feel for the data.
V11N 3.47
F9A 1.73
A3W 1.96
K1W 3.4
A3Y 2.83

-- ask What measured protein stability index goes with L6M ?
-- reply 4.28

-- ask What measured protein stability index goes with L6C ?
-- reply 3.42

-- ask What measured protein stability index goes with V14H ?
-- reply 2.91

-- ask What measured protein stability index goes with A21S ?
-- reply 4.49

-- ask What measured protein stability index goes with L6I ?
-- reply 3.09

-- ask What measured protein stability index goes with M5T ?
-- reply 3.55
